tested-target: EPHA3 (human)
protocol-details: radiometric filter-binding kinase assay, Kinase HotSpot
settings: compound 0.5 µM; ATP 10 µM

compound-structure	tested-target	residual activity [%]
O=C1Nc2ccc(Cl)cc2/C1=C/c1cc(Cl)c(O)c(Cl)c1	EPHA3 (human)	82.5
CC(=O)c1ccc(N2CCOCC2)cc1O	EPHA3 (human)	108
O=C1NC(=O)c2c1c1c3ccccc3n3c1c1c2c2ccccc2n1C1CCC3O1	EPHA3 (human)	96.5
CC[n+]1c(/C=C/N(C)c2ccccc2)n(-c2ccccc2)c2ccc(-c3nc4ccccc4s3)cc21	EPHA3 (human)	99.4
CC#CC(=O)Nc1cc2c(Nc3ccc(F)c(Cl)c3)ncnc2cn1	EPHA3 (human)	99.8
Nc1ncnc2c1c(-c1ccc(Oc3ccccc3)cc1)cn2C1CCCC1	EPHA3 (human)	96.3
Nc1ncnc2[nH]nc(Nc3ccc(F)cc3)c12	EPHA3 (human)	107
CCN(CC)CCNC(=O)c1c(C)[nH]c(/C=C2\C(=O)Nc3ccc(F)cc32)c1C	EPHA3 (human)	84
Cc1[nH]c(/C=C2\C(=O)Nc3ccc(S(=O)(=O)N(C)c4cccc(Cl)c4)cc32)c(C)c1C(=O)N1CCN(C)CC1	EPHA3 (human)	103
Nc1cccc(-c2cc3c(Oc4cccc(O)c4)ncnc3[nH]2)c1	EPHA3 (human)	39.7
O=C(Nc1cccc(Nc2nccc(Nc3cccc(C(F)(F)F)c3)n2)c1)C1CC1	EPHA3 (human)	105
Nc1ccc2ncnc(NCCc3ccc(Oc4ccccc4)cc3)c2c1	EPHA3 (human)	102
CCN(CC)C(=O)c1ccc(Nc2nc(OCC3CCCCC3)c3nc[nH]c3n2)cc1	EPHA3 (human)	99.9
